Measured target: human CYP11B1 (Homo sapiens)
Sequence (P15538 25-503): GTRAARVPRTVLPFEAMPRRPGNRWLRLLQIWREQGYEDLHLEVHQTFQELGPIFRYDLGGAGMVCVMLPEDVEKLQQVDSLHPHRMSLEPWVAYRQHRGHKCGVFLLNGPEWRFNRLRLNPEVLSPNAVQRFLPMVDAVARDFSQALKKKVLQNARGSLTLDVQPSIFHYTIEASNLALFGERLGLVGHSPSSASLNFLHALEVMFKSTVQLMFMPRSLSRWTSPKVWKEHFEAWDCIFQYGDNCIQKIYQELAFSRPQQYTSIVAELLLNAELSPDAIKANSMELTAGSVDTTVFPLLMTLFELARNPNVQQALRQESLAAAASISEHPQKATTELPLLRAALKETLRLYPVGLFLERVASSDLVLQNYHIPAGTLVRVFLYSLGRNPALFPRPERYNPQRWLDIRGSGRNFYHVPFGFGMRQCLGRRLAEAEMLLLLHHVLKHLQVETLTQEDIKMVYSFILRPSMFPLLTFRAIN
Assay text: G-402 cellular enzyme assay, human CYP11B1 (cortisol release, HTRF)
Condition: G-402 cells, 1 μM Deoxycortisol
Parameter: EC50 (nM)
Please state the figure in nM; there is no need to write the unit.

Example cases with answers are listed next.
CCC1c2cc(Cl)ccc2C(=O)N1c1cncc(-c2ccnn2C)c1 (single isomer, unassigned) [Example 428]	105
CCS(=O)(=O)N(C)Cc1cncc(N2C(=O)c3ccc(Cl)cc3C2(C)C)c1	679
O=C1c2ccc(Cl)cc2CCN1c1cncc(-c2cccc(OC(F)(F)F)c2)c1	3610

# evaluate next
Incoming: Entry `NC1(c2cncc(N3CCc4cc(Cl)ccc4C3=O)c2)CC1` has what EC50?
Outgoing: 8000

Data origin: patent US9133158B2
